targetUnderTest: p56lck GST-SH2 (lck SH2 domain) (Homo sapiens, UniProt P06239)
Construct: GST (N)
Sequence (P06239 127-224 limits assumed): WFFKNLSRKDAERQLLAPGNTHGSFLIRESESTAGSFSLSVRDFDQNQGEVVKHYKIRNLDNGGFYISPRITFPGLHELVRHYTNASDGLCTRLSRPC
assayComment: Receptor-ligand equilibrium binding constants by surface plasmon resonance (biosensor), lck SH2 domain
conditionSummary: Table 1, compounds of formula (II)
Rule: measured Kd below 5 µM gets t; anything equal to or greater than 5 µM gets f.

molecule | targetUnderTest | qualitativeLabel
Cc1ccn(CC2(c3ccccc3)CC2)c(=O)c1NC(=O)C(Cc1ccc(C(C)(C)C(=O)O)cc1)NC(=O)C(C)(C)c1ccc2ccccc2c1 (stereo not drawn) | p56lck GST-SH2 (lck SH2 domain) (Homo sapiens, UniProt P06239) | f

Problem: For the molecule Cc1ccn(Cc2ccc(C(C)C)cc2)c(=O)c1NC(=O)[C@H](Cc1ccc(C(C)(C)C(=O)O)cc1)NC(=O)Cc1c[nH]c2ccccc12 , is Kd under 5 µM?
t

Problem: For the molecule COc1ccc(Cn2ccc(C)c(NC(=O)[C@H](Cc3ccc(CC(=O)O)cc3)NC(=O)C3(c4ccccc4)CCCCC3)c2=O)cc1 , is Kd under 5 µM?
f

Problem: For the molecule COc1ccc(Cn2ccc(C)c(NC(=O)[C@H](Cc3ccc(C(F)(F)P(=O)(O)O)cc3)NC(=O)Cc3cccc4ccccc34)c2=O)cc1 , is Kd under 5 µM?
t

Problem: For the molecule COc1ccc(Cn2ccc(C)c(NC(=O)[C@H](Cc3ccc(C(C)(C)C(=O)O)cc3)NC(=O)C(C)(C)c3ccc(CC(C)C)cc3)c2=O)cc1 , is Kd under 5 µM?
t

Problem: For the molecule Cc1ccn(CC2CCCCC2)c(=O)c1NC(=O)C(Cc1ccc(C(C)(C)C(=O)O)cc1)NC(=O)C(C)(C)c1ccc2ccccc2c1 (stereo not drawn) , is Kd under 5 µM?
f
